target-entity: EGFRvIII-Fc fusion antigen (human, UniProt P00533 25-645)
method-notes: SPR Biacore T200, EGFRvIII-Fc captured via anti-hu Fc, scFv analyte, 1:1 model;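 further: Multi-cycle kinetics on a CM5 chip in HBS-P+ running buffer, 180 s scFv association then 540 s dissociation, with blank flow cell signals subtracted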
Reported koff values for a set of binders
Provide only the numeric value, understood in s⁻¹.

[
  {
    "binder": "scFv 475 (scFv, V domains shown, One-chain scFv, His-tagged) VH: EVQLVQSGAEVKKPGESLKISCKGSGYSFTSYWIGWVRQMPGKGLEWMGIIYPDDSDTRYSPSFQGQVTISADKSISTAYLQWSSLKASDTAMYYCARLGSSWTNDAFDIWGQGTLVTVSS VL: SYELTQPPSVSVSPGQTARITCSGDALPKQYAYWYQQKPGQAPVLVIYKDTERPSGIPERFSGSSSGTTVTLTISGVQAEDEADYYCQSVDSSGTYVVFGGGTKLTVL",
    "koff, s⁻¹": 0.0008
  },
  {
    "binder": "scFv 474 (scFv, V domains shown, One-chain scFv, His-tagged) VH: EVQLVQSGAEVKKPGESLKISCKGSGYSFSHYWIGWVRQMPGKGLEWMGITYPGDVDTRYDPSFQGQVTISADKSISTAYLQWSSLKASDTAMYYCARLGSSWTNDAFDIWGQGTLVTVSS VL: SYELTQPPSVSVSPGQTARITCSGDALPKTYAYWYQQKPGQAPVLVIYKDTERPSGIPERFSGSSSGTTVTLTISGVQAEDEADYYCQSADSSGTYLVFGGGTKLTVL",
    "koff, s⁻¹": 0.0016
  }
]

Kindly consider the entry below.
Given item scFv 479 (scFv, V domains shown, One-chain scFv, His-tagged) VH: EVQLVQSGAEVKKPGESLKISCKGSGYDFSSYWIGWVRQMPGKGLEWMGIIYPGDSDTIYSPSFQGQVTISADKSISTAYLQWSSLKASDTAMYYCARLGSSWTNDAFDIWGQGTLVTVSS VL: SYELTQPPSVSVSPGQTARITCSGAALPEQYAYWYQQKPGQAPVLVIYKDSERPSGIPERFSGSSSGTTVTLTISGVQAEDEADYYCQSVDSSGTFYVFGGGTKLTVL , the value recorded as its koff is 0.00096
